Where these numbers come from: patent US20240262830A1

Assayed target: truncated human IRE1a WT protein, containing the catalytic part (aa 547-977) (Homo sapiens, UniProt O75460)
Construct: containing the catalytic part (aa 547-977)
Sequence (O75460 547-977): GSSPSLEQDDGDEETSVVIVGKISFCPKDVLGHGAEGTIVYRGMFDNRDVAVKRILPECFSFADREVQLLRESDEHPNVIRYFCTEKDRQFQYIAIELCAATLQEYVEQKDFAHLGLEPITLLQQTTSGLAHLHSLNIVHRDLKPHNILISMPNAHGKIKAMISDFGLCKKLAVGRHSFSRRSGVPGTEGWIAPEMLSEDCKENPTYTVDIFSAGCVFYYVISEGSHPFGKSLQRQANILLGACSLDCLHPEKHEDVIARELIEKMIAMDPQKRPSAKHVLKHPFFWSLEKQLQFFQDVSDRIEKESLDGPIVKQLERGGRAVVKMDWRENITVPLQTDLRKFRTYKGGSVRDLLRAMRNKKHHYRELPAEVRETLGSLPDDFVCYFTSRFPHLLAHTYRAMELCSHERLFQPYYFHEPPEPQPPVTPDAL
Method description: IRE1a biochemical enzyme splice assay
Test conditions: 20 nM protein, 500 nM fluorescently quenched IRE1a substrate, 40 min at room temperature; read-out: EnzymeSplice_hIRE1a_IC50 (IC50)

# Compound, IC50
records = [
    ("CCc1cc(-c2ccc3c(NC(=O)NC4CC4)ncnn23)cc2cnc(NC3CCCNC3)nc12 (stereo in doubt)", "100 to 1000 nM"),
    ("CCc1cc(-c2ccc3c(NS(=O)(=O)c4ccccc4Cl)ncnn23)cc2cnc(N[C@H]3CCCC[C@@H]3O)nc12", "100 to 1000 nM"),
    ("CCc1cc(-c2ccc3c(NS(=O)(=O)c4ccccc4Cl)ncnn23)cc2cnc(NC[C@@H]3CCCCN3)nc12", "100 to 1000 nM"),
    ("CCc1cc(-c2ccc3c(NS(=O)(=O)c4ccccc4F)ncnn23)cc2cnc(N[C@H]3CCCNC3)nc12", "< 100 nM"),
    ("CCc1cc(-c2ccc3c(NS(=O)(=O)Cc4ccccc4Cl)ncnn23)cc2cnc(N[C@H]3CCCNC3)nc12", "< 100 nM"),
    ("CCc1cc(-c2ccc3c(NS(=O)(=O)c4ccccc4Cl)ncnn23)cc2cnc(N[C@H]3CCCNC3)nc12", "< 100 nM"),
    ("CCc1cc(-c2ccc3c(NS(=O)(=O)c4ccccc4C)ncnn23)cc2cnc(N[C@H]3CCCNC3)nc12", "< 100 nM"),
]
